Tested on: NS3/4a protease inhibitor resistant variant R155K in genotype 1a transient HCV replicon
METHOD: Transient-transfected HCV replicon, genotype 1a R155K
Assay type: cell-based
CONDITION: Hepatitis C virus, 72 h, read-out: EC50 1A R155K
OUTCOME_MEASURE: pEC50
One number for each entry, as −log10 of the molar value.

Record excerpt, results attached:
>>> numeric_value("COc1ccc2cc3c(nc2c1)O[C@@H]1C[C@@H](C(=O)N[C@]2(C(=O)NS(=O)(=O)C4CC4)C[C@H]2C(F)F)N(C1)C(=O)[C@H](C(C)(C)C)NC(=O)O[C@@H]1C[C@@H]2C[C@@H]2[C@H]1CCCCC3")
8.85
>>> numeric_value("CC(C)(C)[C@@H]1NC(=O)O[C@@H]2C[C@@H]3C[C@@H]3[C@H]2CCCCCn2c(nc3ccccc3c2=O)O[C@@H]2C[C@@H](C(=O)N[C@]3(C(=O)NS(=O)(=O)C4(C)CC4)C[C@H]3C(F)F)N(C2)C1=O")
8.82
>>> numeric_value("CC(C)(C)[C@@H]1NC(=O)O[C@@H]2C[C@@H]3C[C@@H]3[C@H]2CCCCCc2nc3ccc(F)cc3nc2O[C@@H]2C[C@@H](C(=O)N[C@]3(C(=O)NS(=O)(=O)C4(C)CC4)C[C@H]3C(F)F)N(C2)C1=O")
8.72

API: the following record is the query input.
Please give measured pEC50 of the following entry: COc1ccc2nc3c(nc2c1)O[C@@H]1C[C@@H](C(=O)N[C@]2(C(=O)NS(=O)(=O)C4CC4)C[C@H]2C(F)F)N(C1)C(=O)[C@H](C(C)(C)C)NC(=O)O[C@@H]1C[C@@H]2C[C@@H]2[C@H]1CCCCC3
8.82
